Tested on: Mycobacterium gordonae
experimental protocol: In vitro cytotoxicity against Mycobacterium gordonae (CIP 6427) was determined
Assay type: functional
test readout: MIC (µg/mL)
# value in µg/mL; strip the unit string

Examples with their reported MIC follow.
c1ccc(-c2ccc(CNc3ccc(CN4CCSCC4)cc3)cc2)cc1; 8
CN[C@@H]1[C@H](O[C@H]2[C@H](O[C@H]3[C@H](O)[C@@H](O)[C@H](N=C(N)N)[C@@H](O)[C@@H]3N=C(N)N)O[C@@H](C)[C@]2(O)C=O)O[C@@H](CO)[C@H](O)[C@H]1O [STREPTOMYCIN]; 16
C[N+](C)(Cc1ccc(-c2ccccc2)cc1)c1ccc(CN2CCSCC2)cc1.[I-]; 8

Now consider a different molecule.
Request: Query: MIC; subject: NNC(=O)c1ccncc1 [ISONIAZID]
Response: 32
